target: human ACC2 (Homo sapiens); construct: made in house; host or cells: insect cells (baculoviral expression system); assay: ACC2 assay, spectrophotometric 384 well assay (NADH-linked, coupled lactate dehydrogenase/pyruvate kinase); assay type: biochemical; conditions: ACC2 assay, hACC2 construct lacking 128 N-terminal amino acids, 25° C., 340 nm; read-out: IC50
PROPERTY NAME: IC50 (nM)

# MOL, STUDY TARGET, READING UNIT, NUMERIC RESULT
measured = [
    ("CCOc1ccc(N2CCC(c3ccc([C@H](C)NC(=O)c4cocn4)cc3)CC2)cc1", "human ACC2 (Homo sapiens)", "nM", 730),
    ("CC(=O)N[C@@H](C)c1ccc(C2CCN(c3ncc(C(=O)NC4CC4)cn3)CC2)cc1", "human ACC2 (Homo sapiens)", "nM", 1900),
    ("CCOc1ccc(N2CCC(c3ccc([C@H](C)NC(=O)CC#N)cc3)CC2)cc1", "human ACC2 (Homo sapiens)", "nM", 460),
]

* * *

biological target: human ACC2 (Homo sapiens); construct: made in house; host or cells: insect cells (baculoviral expression system); test: ACC2 assay, spectrophotometric 384 well assay (NADH-linked, coupled lactate dehydrogenase/pyruvate kinase); type: biochemical; settings: ACC2 assay, hACC2 construct lacking 128 N-terminal amino acids, 25° C., 340 nm; read-out: IC50
pIC50: −log10 of the molar value.
Reported pIC50 values for the following compounds.

# COMPOUND, pIC50
rows = [
    ("COC(=O)N[C@@H](C)c1ccc(C2CCN(c3ccnc(OC(C)C)c3)CC2)cc1 [Example 1.136]", 6.30),
    ("CC(=O)N[C@@H](C)c1ccc(C2CCN(c3ccc(F)c(F)c3)CC2)cc1 [Example 1.163]", 6.17),
    ("CC(=O)N[C@@H](C)c1ccc(C2CCN(c3ncc(C(C)(C)C)cn3)CC2)cc1 [Example 4.38]", 6.36),
]

* * *

target: human ACC2 (Homo sapiens, UniProt O00763); construct: made in house; host or cells: insect cells (baculoviral expression system); test: ACC2 assay, spectrophotometric 384 well assay (NADH-linked, coupled lactate dehydrogenase/pyruvate kinase); type: biochemical; details: ACC2 assay, hACC2 construct lacking 128 N-terminal amino acids, 25° C., 340 nm; read-out: IC50
Sequence (O00763 129-2458 limits assumed): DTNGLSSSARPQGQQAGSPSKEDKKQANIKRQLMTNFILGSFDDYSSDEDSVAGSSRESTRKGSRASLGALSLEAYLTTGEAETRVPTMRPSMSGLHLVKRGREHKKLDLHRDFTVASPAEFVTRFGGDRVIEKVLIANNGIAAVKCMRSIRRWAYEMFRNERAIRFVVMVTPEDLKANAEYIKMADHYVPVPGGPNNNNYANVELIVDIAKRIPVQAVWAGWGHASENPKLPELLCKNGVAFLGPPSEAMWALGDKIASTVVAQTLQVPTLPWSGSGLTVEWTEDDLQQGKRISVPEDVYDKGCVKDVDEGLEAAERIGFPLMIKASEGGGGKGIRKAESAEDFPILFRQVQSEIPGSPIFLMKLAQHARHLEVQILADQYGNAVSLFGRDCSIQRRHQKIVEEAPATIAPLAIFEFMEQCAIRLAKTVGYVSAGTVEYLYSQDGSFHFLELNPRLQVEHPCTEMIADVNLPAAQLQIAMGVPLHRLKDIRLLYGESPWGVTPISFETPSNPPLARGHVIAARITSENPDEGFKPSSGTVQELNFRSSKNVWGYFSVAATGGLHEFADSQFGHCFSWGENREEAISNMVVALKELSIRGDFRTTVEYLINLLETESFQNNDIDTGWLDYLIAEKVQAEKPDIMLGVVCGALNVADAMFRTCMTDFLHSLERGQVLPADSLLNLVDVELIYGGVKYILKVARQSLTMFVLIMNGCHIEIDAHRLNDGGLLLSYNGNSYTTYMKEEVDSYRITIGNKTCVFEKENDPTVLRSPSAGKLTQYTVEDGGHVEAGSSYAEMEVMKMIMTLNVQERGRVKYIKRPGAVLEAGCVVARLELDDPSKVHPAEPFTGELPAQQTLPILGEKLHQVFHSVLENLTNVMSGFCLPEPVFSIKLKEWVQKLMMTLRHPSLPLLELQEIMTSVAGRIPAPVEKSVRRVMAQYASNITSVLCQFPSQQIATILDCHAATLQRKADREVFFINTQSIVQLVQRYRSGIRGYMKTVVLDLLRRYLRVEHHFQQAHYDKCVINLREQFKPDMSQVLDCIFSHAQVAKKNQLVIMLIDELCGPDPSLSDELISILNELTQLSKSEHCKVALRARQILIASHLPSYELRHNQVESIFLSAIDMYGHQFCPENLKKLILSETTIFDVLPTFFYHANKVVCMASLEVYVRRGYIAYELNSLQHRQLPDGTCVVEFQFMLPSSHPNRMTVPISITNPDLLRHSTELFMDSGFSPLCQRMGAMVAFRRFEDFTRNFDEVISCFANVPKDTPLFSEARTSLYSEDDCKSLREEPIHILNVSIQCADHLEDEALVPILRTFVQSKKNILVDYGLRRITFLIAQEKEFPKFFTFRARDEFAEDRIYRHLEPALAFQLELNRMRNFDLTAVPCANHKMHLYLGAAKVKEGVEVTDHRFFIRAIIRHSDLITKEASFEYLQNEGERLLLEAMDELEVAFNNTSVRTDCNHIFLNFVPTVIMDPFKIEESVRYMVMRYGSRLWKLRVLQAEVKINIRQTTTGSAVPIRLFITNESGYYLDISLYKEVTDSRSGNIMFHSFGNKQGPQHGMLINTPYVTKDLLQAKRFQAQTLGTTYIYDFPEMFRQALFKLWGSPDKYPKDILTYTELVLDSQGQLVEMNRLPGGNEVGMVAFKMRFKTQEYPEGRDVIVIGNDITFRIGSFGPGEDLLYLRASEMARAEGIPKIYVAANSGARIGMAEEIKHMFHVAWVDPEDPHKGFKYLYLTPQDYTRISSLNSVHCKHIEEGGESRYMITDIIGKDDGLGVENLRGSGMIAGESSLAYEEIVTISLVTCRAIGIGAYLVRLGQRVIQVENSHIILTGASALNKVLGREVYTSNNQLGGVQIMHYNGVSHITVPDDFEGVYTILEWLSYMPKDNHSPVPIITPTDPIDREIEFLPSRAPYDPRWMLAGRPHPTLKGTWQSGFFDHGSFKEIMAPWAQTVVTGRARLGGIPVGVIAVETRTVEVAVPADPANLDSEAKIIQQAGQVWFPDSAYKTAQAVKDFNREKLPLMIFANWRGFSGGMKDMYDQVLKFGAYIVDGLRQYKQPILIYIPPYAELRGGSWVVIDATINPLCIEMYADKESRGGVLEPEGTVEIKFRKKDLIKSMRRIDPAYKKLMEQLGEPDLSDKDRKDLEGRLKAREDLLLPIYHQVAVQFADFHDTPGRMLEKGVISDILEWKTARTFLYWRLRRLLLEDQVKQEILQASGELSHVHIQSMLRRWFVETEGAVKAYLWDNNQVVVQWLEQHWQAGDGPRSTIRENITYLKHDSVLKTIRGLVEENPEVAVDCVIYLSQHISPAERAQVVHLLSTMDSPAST

# MOLECULE, IC50 / nM
records = [
    ("CC(=O)N[C@@H](C)c1ccc(C2CCN(c3ccc(OCC/C=C/C4CC4)cc3)CC2)cc1 [Example 8.65]", 220),
    ("CCC(C)Oc1ccc(N2CCC(c3ccc([C@H](C)NC(C)=O)cc3)CC2)c(C#N)c1 (some centres unmarked) [Example 4.202]", 150),
    ("CCC(C)Oc1cc(N2CCC(c3ccc([C@H](C)NC(C)=O)cc3)CC2)ccn1 (some centres unmarked) [Example 19.13]", 90),
    ("CC(=O)N[C@@H](C)c1ccc(C2CCN(c3ncc(-c4ccc(C)cc4C)cn3)CC2)cc1 [Example 10.48]", 1200),
    ("CC(=O)Nc1cnc(N2CCC(c3ccc([C@H](C)NC(C)=O)cc3)CC2)nc1 [Example 4.34]", 9500),
    ("CCOc1ccc(N2CCC(c3ccc([C@H](C)NC(=O)C4CC(F)C4)cc3)CC2)cc1 (some centres unmarked) [Example 6.38]", 90),
    ("CC(=O)N[C@@H](C)c1ccc(C2CCN(c3ccc4c(c3)OCO4)CC2)cc1 [Example 1.67]", 360),
    ("CC(=O)N[C@@H](C)c1ccc(C2CCN(c3ncc(C(=O)Nc4ccc(C)cc4)cn3)CC2)cc1 [Example 18.17]", 7900),
]
